System: RXF 393 renal
Assay: NCI-60 one-dose screen, 48 h (100 = growth as untreated, 0 = no growth, -100 = all killed)
Conditions: 10 µM unless noted
The panel holds about 83,000 compounds, 20% with a hit somewhere; the sample as a whole holds those more often.
As shown below, each of these compounds has a reported growth value.
Give the value in % but do not write % after it.

Answered examples (8):
- Compound: "COc1cc(-c2cc(-c3ccc(N(C)C)cc3)nc(N3CCOCC3)c2C#N)cc(OC)c1OC"
  growth (%): -43.2
- Compound: "COc1cc2c(c(O)c1Cl)C(=O)c1c(O)cc(C[C@H](C)O)cc1[C@H]2[C@H]1c2cc(C[C@H](C)O)cc(O)c2C(=O)c2c1cc(OC)c(Cl)c2O"
  growth (%): 10.4
- Compound: "CCCCOc1ccc(/C=N/Nc2cc(C)nc3ccc(Br)cc23)cc1"
  growth (%): -72
- Compound: "C/C(=N\\Nc1cc(C)nc2ccc(Br)cc12)c1ccc([N+](=O)[O-])cc1"
  growth (%): 68.6
- Compound: "CCCC/C=N/NC(=S)NCc1ccccc1"
  growth (%): 106
- Compound: "Nc1nc(Nc2ccccc2SSc2ccccc2Nc2nc(N)nc(-c3ccc(C(F)(F)F)cc3)n2)nc(-c2ccc(C(F)(F)F)cc2)n1"
  growth (%): 78.6
- Compound: "COc1ccc(C(=O)Nc2cccc(C3CCc4c(cc(OC)c(OC)c4OC)O3)c2)cc1 (centres undefined)"
  growth (%): 81.1
- Compound: "O=C(NCCc1ccccc1)Nc1ccc2cc3ccc(NC(=O)NCCc4ccccc4)cc3nc2c1"
  growth (%): -21.5

Next:
Fill in: growth of `CCc1ccc(CNc2ccc(N3CCOCC3)c(C(=O)O)c2)cc1` is ___
121
